target: Nuclear receptor subfamily 1 group I member 2 (Homo sapiens) (UniProt O75469); experiment: NVS_NR_hPXR: NovaScreen (NVS) Nuclear Receptor Binding Assay for human Pregnane X Receptor (PXR) (AID 2283365);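 note: a drop in FRET signal versus DMSO baseline means the compound binds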
Sequence (O75469 whole entry, looked up): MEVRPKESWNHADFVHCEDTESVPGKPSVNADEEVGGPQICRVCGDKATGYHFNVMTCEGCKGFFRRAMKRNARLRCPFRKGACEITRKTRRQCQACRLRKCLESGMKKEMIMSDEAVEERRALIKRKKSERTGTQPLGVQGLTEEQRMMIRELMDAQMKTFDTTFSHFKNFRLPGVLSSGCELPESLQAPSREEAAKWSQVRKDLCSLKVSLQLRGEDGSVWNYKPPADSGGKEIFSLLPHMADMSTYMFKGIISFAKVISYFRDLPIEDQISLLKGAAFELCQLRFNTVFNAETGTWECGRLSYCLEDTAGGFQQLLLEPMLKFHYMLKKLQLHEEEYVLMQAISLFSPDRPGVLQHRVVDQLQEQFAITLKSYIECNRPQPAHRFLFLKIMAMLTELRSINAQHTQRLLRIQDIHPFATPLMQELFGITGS
Records with an inconclusive call do not appear. The source made the active and inactive calls. Rule for the calls: active = hit-call score of the fitted dose curve at least 0.9, where 1 is the maximum; inconclusive = response in the unintended direction; inactive = score below 0.9.
Respond using exactly one of the listed classes: true (1) = active, false (0) = inactive

| compound | assayed_target | category_label |
| --- | --- | --- |
| CCCCCCCCCCCCCOS(=O)(=O)O | Nuclear receptor subfamily 1 group I member 2 (Homo sapiens) (UniProt O75469) | false (0) |
| CCC(=O)/C=C/C1C(C)=CCCC1(C)C (configuration not stated) | Nuclear receptor subfamily 1 group I member 2 (Homo sapiens) (UniProt O75469) | false (0) |
| O=c1cc(-c2ccccc2)oc2cc(O)cc(O)c12 | Nuclear receptor subfamily 1 group I member 2 (Homo sapiens) (UniProt O75469) | false (0) |
| c1ccc2[nH]ccc2c1 | Nuclear receptor subfamily 1 group I member 2 (Homo sapiens) (UniProt O75469) | false (0) |
| CSc1nc(NC2CC2)nc(NC(C)(C)C)n1 | Nuclear receptor subfamily 1 group I member 2 (Homo sapiens) (UniProt O75469) | true (1) |
| CC(C)(C#N)c1cc(Cn2cncn2)cc(C(C)(C)C#N)c1 | Nuclear receptor subfamily 1 group I member 2 (Homo sapiens) (UniProt O75469) | false (0) |

Which outcome did this test record for the compound "CC(C)C[C@H]1C(=O)N2CCC[C@H]2[C@]2(O)O[C@](NC(=O)[C@@H]3C=C4c5cccc6[nH]c(Br)c(c56)C[C@H]4N(C)C3)(C(C)C)C(=O)N12" ?
true (1)
